Tested on: EKVX NSCLC
Assay: NCI tumour cell line growth inhibition, 48 h
The entries below come with measured TGI values attached.
property_label: TGI (µM)

| molecule | system_under_test | property_label | qualifier_sign | data_value |
| --- | --- | --- | --- | --- |
| Clc1ccccc1-c1nc(-c2ccncc2)no1 | EKVX NSCLC | TGI | > | 100 |
| COC(=O)CCCC(=O)NC1=C(Nc2ccccc2)C(=O)c2ccccc2C1=O | EKVX NSCLC | TGI | = | 49.7 |
| N#Cc1nc(Sc2cnsn2)c(Sc2cnsn2)nc1C#N | EKVX NSCLC | TGI | = | 36.7 |
| CC1=CSC(O)(c2ccc(Cl)cc2)c2noc(=O)n21 (stereo not drawn) | EKVX NSCLC | TGI | > | 100 |
| COc1cc(-c2nc3ccccc3[nH]2)ccc1OCC(=O)N=Nc1c(O)[nH]c2ccc(Cl)cc12 | EKVX NSCLC | TGI | > | 100 |
| FC(F)(F)c1ccc2c(c1)nc(Cc1ccc(Cl)c(Cl)c1)n2CC1CCCN2CCCCC12 (stereo not drawn) | EKVX NSCLC | TGI | = | 80.3 |
| COc1ccc(C2C3=C(COC3=O)OC(C)(C)Oc3cc4c(cc32)OCO4)cc1 (stereo not drawn) | EKVX NSCLC | TGI | > | 92.7 |
| C[C@@H]1[C@H]2[C@H](C=C3[C@@H]4CC[C@H]5Cc6nc7c(nc6C[C@]5(C)[C@H]4C[C@@H](O)[C@@]32C)C[C@@H]2CC[C@H]3C4=C[C@@H]5O[C@@]6(CC[C@](C)(CO)O6)[C@@H](C)[C@@]5(O)[C@@]4(C)[C@H](O)C[C@@H]3[C@@]2(C)C7)O[C@]12CCC(C)(C)O2 | EKVX NSCLC | TGI | = | 14.1 |
